- Tested on: Streptococcus pyogenes C203
- ASSAY_INFO: broth micro-dilution MIC
- Type: cell-based
MEASURED_ATTRIBUTE: MIC

1. CNC(CC(C)C)C(=O)NC1C(=O)NC(CC(N)=O)C(=O)NC2C(=O)NC3C(=O)NC(C(=O)NC(C(=O)O)c4cc(O)cc(O)c4-c4cc3ccc4O)C(OC3CC(C)(N)C(O)C(C)O3)c3ccc(c(Cl)c3)Oc3cc2cc(c3OC2OC(CO)C(O)C(O)C2OC2CC(C)(NCc3ccc(OC(F)(F)F)cc3)C(O)C(C)O2)Oc2ccc(cc2Cl)C1O (stereo not drawn) ... ≤ 0.06 µg/mL
2. CC(C)CC(C(=O)NC1C(=O)NC(CC(N)=O)C(=O)NC2C(=O)NC3C(=O)NC(C(=O)NC(C(=O)O)c4cc(O)cc(O)c4-c4cc3ccc4O)C(OC3CC(C)(N)C(O)C(C)O3)c3ccc(c(Cl)c3)Oc3cc2cc(c3OC2OC(CO)C(O)C(O)C2OC2CC(C)(NCc3c4ccccc4cc4ccccc34)C(O)C(C)O2)Oc2ccc(cc2Cl)C1O)N(C)Cc1c2ccccc2cc2ccccc12 (stereo not drawn) ... ≤ 0.06 µg/mL
3. C=CCCCCCCCCCNC1(C)CC(OC2C(Oc3c4cc5cc3Oc3ccc(cc3Cl)C(OC3CC(C)(N)C(O)C(C)O3)C3NC(=O)C(NC(=O)C5NC(=O)C(CC(N)=O)NC(=O)C(NC(=O)C(CC(C)C)NC)C(O)c5ccc(c(Cl)c5)O4)c4ccc(O)c(c4)-c4c(O)cc(O)cc4C(C(=O)O)NC3=O)OC(CO)C(O)C2O)OC(C)C1O (stereo not drawn) ... ≤ 0.06 µg/mL
4. CC(C)CC(C(=O)NC1C(=O)NC(CC(N)=O)C(=O)NC2C(=O)NC3C(=O)NC(C(=O)NC(C(=O)O)c4cc(O)cc(O)c4-c4cc3ccc4O)C(OC3CC(C)(N)C(O)C(C)O3)c3ccc(c(Cl)c3)Oc3cc2cc(c3OC2OC(CO)C(O)C(O)C2OC2CC(C)(NCc3cccc4c3OCO4)C(O)C(C)O2)Oc2ccc(cc2Cl)C1O)N(C)Cc1cccc2c1OCO2 (stereo not drawn) ... ≤ 0.06 µg/mL
5. CNC(CC(C)C)C(=O)NC1C(=O)NC(CC(N)=O)C(=O)NC2C(=O)NC3C(=O)NC(C(=O)NC(C(=O)O)c4cc(O)cc(O)c4-c4cc3ccc4O)C(OC3CC(C)(NCc4ccc(C(F)(F)F)cc4)C(O)C(C)O3)c3ccc(c(Cl)c3)Oc3cc2cc(c3OC2OC(CO)C(O)C(O)C2OC2CC(C)(NCc3ccc(C(F)(F)F)cc3)C(O)C(C)O2)Oc2ccc(cc2Cl)C1O (stereo not drawn) ... ≤ 0.06 µg/mL
6. CNC(CC(C)C)C(=O)NC1C(=O)NC(CC(N)=O)C(=O)NC2C(=O)NC3C(=O)NC(C(=O)NC(C(=O)O)c4cc(O)cc(O)c4-c4cc3ccc4O)C(OC3CC(C)(N)C(O)C(C)O3)c3ccc(c(Cl)c3)Oc3cc2cc(c3OC2OC(CO)C(O)C(O)C2OC2CC(C)(NCc3ccc(OCc4ccccc4)cc3)C(O)C(C)O2)Oc2ccc(cc2Cl)C1O (stereo not drawn) ... ≤ 0.06 µg/mL
7. CNC(CC(C)C)C(=O)NC1C(=O)NC(CC(N)=O)C(=O)NC2C(=O)NC3C(=O)NC(C(=O)NC(C(=O)O)c4cc(O)cc(O)c4-c4cc3ccc4O)C(OC3CC(C)(N)C(O)C(C)O3)c3ccc(c(Cl)c3)Oc3cc2cc(c3OC2OC(CO)C(O)C(O)C2OC2CC(C)(NCc3ccc(Cl)c(C(=O)c4ccccc4)c3Cl)C(O)C(C)O2)Oc2ccc(cc2Cl)C1O (stereo not drawn) ... ≤ 0.06 µg/mL
8. COc1ccc2nc(-c3ccccc3)cc(CNC3(C)CC(OC4C(Oc5c6cc7cc5Oc5ccc(cc5Cl)C(OC5CC(C)(N)C(O)C(C)O5)C5NC(=O)C(NC(=O)C7NC(=O)C(CC(N)=O)NC(=O)C(NC(=O)C(CC(C)C)N(C)Cc7cc(-c8ccccc8)nc8ccc(OC)cc78)C(O)c7ccc(c(Cl)c7)O6)c6ccc(O)c(c6)-c6c(O)cc(O)cc6C(C(=O)O)NC5=O)OC(CO)C(O)C4O)OC(C)C3O)c2c1 (stereo not drawn) ... ≤ 0.06 µg/mL
9. CNC(CC(C)C)C(=O)NC1C(=O)NC(CC(N)=O)C(=O)NC2C(=O)NC3C(=O)NC(C(=O)NC(C(=O)O)c4cc(O)cc(O)c4-c4cc3ccc4O)C(OC3CC(C)(N)C(O)C(C)O3)c3ccc(c(Cl)c3)Oc3cc2cc(c3OC2OC(CO)C(O)C(O)C2OC2CC(C)(NCc3cccc(OC(C)=O)c3)C(O)C(C)O2)Oc2ccc(cc2Cl)C1O (stereo not drawn) ... ≤ 0.06 µg/mL
10. CCCCCCCCc1ccc(-c2ccc(CNC3(C)CC(OC4C(Oc5c6cc7cc5Oc5ccc(cc5Cl)C(OC5CC(C)(N)C(O)C(C)O5)C5NC(=O)C(NC(=O)C7NC(=O)C(CC(N)=O)NC(=O)C(NC(=O)C(CC(C)C)NC)C(O)c7ccc(c(Cl)c7)O6)c6ccc(O)c(c6)-c6c(O)cc(O)cc6C(C(=O)O)NC5=O)OC(CO)C(O)C4O)OC(C)C3O)cc2)cc1 (stereo not drawn) ... 2 µg/mL
11. CC(C)CC(C(=O)NC1C(=O)NC(CC(N)=O)C(=O)NC2C(=O)NC3C(=O)NC(C(=O)NC(C(=O)O)c4cc(O)cc(O)c4-c4cc3ccc4O)C(OC3CC(C)(N)C(O)C(C)O3)c3ccc(c(Cl)c3)Oc3cc2cc(c3OC2OC(CO)C(O)C(O)C2OC2CC(C)(NCc3ccc4ccccc4n3)C(O)C(C)O2)Oc2ccc(cc2Cl)C1O)N(C)Cc1ccc2ccccc2n1 (stereo not drawn) ... ≤ 0.06 µg/mL
12. CNC(CC(C)C)C(=O)NC1C(=O)NC(CC(N)=O)C(=O)NC2C(=O)NC3C(=O)NC(C(=O)NC(C(=O)O)c4cc(O)cc(O)c4-c4cc3ccc4O)C(OC3CC(C)(N)C(O)C(C)O3)c3ccc(c(Cl)c3)Oc3cc2cc(c3OC2OC(CO)C(O)C(O)C2OC2CC(C)(NCc3ccc(-c4ccccc4)cc3)C(O)C(C)O2)Oc2ccc(cc2)C1O (stereo not drawn) ... ≤ .06 µg/mL
